growth inhibition overview
Experiment: NCI Yeast Anticancer Drug Screen. Data for the mlh1 rad18 strain (AID 175)
Conditions: S. cerevisiae mlh1 rad18 strain growth inhibition; at 50.0 µM; active compounds read high
About 79,000 compounds went through this panel and 15% of them were active in at least one assay; those are over-represented in the sample as a whole.
Give just the numeric value; % need not be written.

Example entries and their recorded answers appear below.
c1ccc2c(CN3CCN(Cc4c[nH]c5ccccc45)CC3)c[nH]c2c1; -21.9
O=C1NC(N2CCOCC2)=N/C1=C\c1ccccc1O; 81.2
C=C=CON1CCCCC1; -0.6
NC(=O)NC(=O)OCCOC(=O)NC(N)=O; -13.2
N#Cc1ccccc1C#N; -0.4

Then this compound:
Q: Would you kindly share the measured growth inhibition for CCCCCCC(=O)OC(C)CC(C)C (stereo not drawn) ?
Result: 24.2

* * *

Assay: NCI Yeast Anticancer Drug Screen. Data for the mec2-1 strain (AID 157)
Conditions: S. cerevisiae mec2-1 strain, at 50.0 µM, active compounds read high
Description: Growth inhibition of yeast strains with defined genetic alterations is measured as a screen for potential anti-cancer activity. Selected strains with alterations in DNA damage repair or cell cycle control were exposed to compounds and growth inhibition was measured relative to vehicle treated controls. The strain used in this assay is mec2-1
The panel holds about 79,000 compounds, 15% with a hit somewhere; the sample as a whole holds those more often.
Catalogue of growth inhibition values
Enter your answer as a number in %; do not include the unit.

ClCCCCCOCCCCCCl; 1.25
Cc1cccc(Cl)c1NC(=O)c1cccc(C(=O)Nc2c(C)cccc2Cl)c1; 4.45
CCc1cccc(C(C)(C)C)c1NC(=S)NC=C(C#N)C#N; -11.6
CC1(C=O)C(=O)CCC2(C)C3CC(=O)OC3CCC12 (stereo unspecified); -10.1
COC(=O)c1c2c(cc3c1CC1(Cc4cc5c(c(C(C)=O)c4C1)CCC5)C3)CCC2 (stereo unspecified); -15.5

Please examine the following record next.
Q: Given `COc1ccc([N+](=O)[O-])cc1NC(=O)N/N=C(\C)C(C)(C)C` , state its recorded growth inhibition.
Result: 18.2

* * *

Assay: NCI Yeast Anticancer Drug Screen. Data for the mlh1 rad18 strain (AID 175)
Settings: S. cerevisiae mlh1 rad18 strain growth inhibition; at 50.0 µM; active compounds read high
Compounds without any hit were thinned out: in the full panel of roughly 79,000, 15% have a hit.
Recorded growth inhibition, one value per entry.
Write the number in % without appending the unit.

Would you please look over these solved cases?
CCOc1c(CNC(=O)CCl)cc(N)cc1CNC(=O)CCl; -10.3
CCCCC(CC)C(C(C)=O)N(C)C (configuration not stated); 4.75
O=C1NC2(c3ccccc3)CCCCC2O1 (configuration not stated); -6.6
O=c1[nH]c2cc(Br)c(Br)cc2c2ccc(Br)cc12; 5.15

Q: Given `Cc1ccc(S(=O)(=O)OC2=C/C(=N\c3onc(C)c3C)c3ccccc3C2=O)cc1` , state its recorded growth inhibition.
Result: -19.3

Q: Same question for COc1ccc2c(c1)CCCN1Cc3cc(OC)c(OC)cc3CC21 (configuration not stated) please.
Result: -3.9

Q: Please do the same for `NC(N)=NOCC(=O)O` as well.
Result: -16.1

Q: # repeat for `O=C(NNC(=O)c1ccc(Cl)cc1Cl)c1ccccc1`
Result: -7.8

Q: # repeat for `O=C(O)c1cc(Cl)cc([N+](=O)[O-])c1`
Result: 52.9

Q: # iterate: `O=C(NCCCn1ccnc1[N+](=O)[O-])C(=O)NCCCn1ccnc1[N+](=O)[O-]`
Result: -23.4

Q: Try this molecule too: `COc1ccc(/C=C/C(=O)c2sc(NC(=S)NC(=O)c3ccccc3F)nc2C)cc1OC`
Result: 22.9

Q: Queued: `O=c1[nH]c2ccccc2nc1/C=C\NC(=S)Nc1cc(Cl)ccc1Cl`
Result: -40.1

* * *

Assay: NCI Yeast Anticancer Drug Screen. Data for the sgs1 mgt1 strain (AID 161);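 also: 0% = growth of cultures given vehicle only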
Conditions: S. cerevisiae sgs1 mgt1 strain, at 50.0 µM, active compounds read high
This is part of a sample that, as a whole, favours compounds with a hit. Of some 79,000 tested, about 15% had one in any assay.
property-label: growth inhibition (%)
Field: numeric (%). Do not append units.

Take a look at these entries with their results.
N#C/C(=C\c1ccccc1)c1cccc(Br)c1; 17.4
Cc1cccc(C)c1NC(=O)CNc1ncccn1; 3.7
Nc1ccc(C(=O)NO)c(O)c1; -7.55
NC(=O)N/N=C/c1ccncc1; -24.9
CCc1ccccc1NC(=O)/C(CC(=O)c1c(C)n([O-])c2ccccc2[n+]1=O)=N\NS(=O)(=O)c1ccc(C)cc1; -12.3
CC1(C)CC[C@]2(C(=O)O)CC[C@]3(C)C(=CC[C@@H]4[C@@]5(C)CC[C@H](OC6OC(C(=O)O)C(O)C(O)C6O)C(C)(C)[C@@H]5CC[C@]43C)[C@@H]2C1 (stereo not given in full); 91.7
CCOC(=O)C1C(c2ccc(Br)cc2)N(Cc2ccccc2)C(c2ccc(Br)cc2)C(C(=O)OC)S1(=O)=O (stereo not given); -16.6
COc1ccccc1NC(=O)CC(=O)n1nc(C)c(N=Nc2ccccc2F)c1C; -28.2
CCC1(C)C(=O)C(C)(CC)C1=O (stereo not given); 21.4

--- query ---
Q: Could you tell me which growth inhibition is on file for Nc1cccc(CC(N)C(=O)O)c1 (stereo not given) ?
Result: -8.7

* * *

Test: NCI Yeast Anticancer Drug Screen. Data for the mec2-1 strain (AID 157)
Conditions: S. cerevisiae mec2-1 strain, at 50.0 µM, active compounds read high
Method: Growth inhibition of yeast strains with defined genetic alterations is measured as a screen for potential anti-cancer activity. Selected strains with alterations in DNA damage repair or cell cycle control were exposed to compounds and growth inhibition was measured relative to vehicle treated controls. The strain used in this assay is mec2-1
This is part of a sample that, as a whole, favours compounds with a hit. Of some 79,000 tested, about 15% had one in any assay.
property-label: growth inhibition (%)
// return numeric value only (unit: %, not printed)

# example entries with known answers
COC(=O)c1ccccc1NC(=O)Nc1ccc(F)c([N+](=O)[O-])c1; 22.9
Cc1ccc(/C=C2\N=C(N3CCCC(CO)C3)NC2=O)cc1 (configuration not stated); -1.55
CCCCCC(=O)OC(C)COc1ccccc1 (configuration not stated); 22.7
CC(=O)OCC1OC(OC(C)=O)C(N(C)C(C)=O)C(OC(C)=O)C1OC(C)=O (configuration not stated); 18.6
SC1CCCN(Cc2ccccc2)C1 (configuration not stated); 4.9
CCCC(O)c1ccccc1C (configuration not stated); 13.9
O=C1CCCC(C(Sc2ccccc2)(Sc2ccccc2)Sc2ccccc2)C1 (configuration not stated); 5.1
CC(C)(C)[Si](C)(C)OCC1OC(n2cc(I)c(=O)[nH]c2=O)C(O[Si](C)(C)C(C)(C)C)C1O[Si](C)(C)C(C)(C)C (configuration not stated); -16
S=c1nc[nH]c2c1ncn2Cc1ccccc1; 4.25
O=C1C=C[C@@H](COC2OC(CO)C(O)C(O)C2O)O1 (some centres not stated); -28.8

Attention now turns to another entry.
Q: Requested field: growth inhibition. Item: `Cc1cc(Br)ccc1N=Cc1ccc(C=Nc2ccc(Br)cc2C)cc1`
Result: -17.6

* * *

Listed next: entries and their corresponding growth inhibition.
Assay: NCI Yeast Anticancer Drug Screen. Data for the rad50 strain (AID 155);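 also: 0% = growth of vehicle-only cultures of the same strain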
Conditions: S. cerevisiae rad50 strain growth inhibition; at 50.0 µM; active compounds read high
The panel holds about 79,000 compounds, 15% with a hit somewhere; the sample as a whole holds those more often.
Please respond with the number in % and leave the unit unwritten.

Please review the following examples before continuing.
c1ccc(CCCCc2ccccn2)cc1; 32
COc1ccc(CC(=O)NCCc2ccc(OC)c(OC)c2OC)cc1; 8.95
Cc1cc(C)c(S(N)(=O)=O)c(C)c1; -1.2
O=C(NCC1CC1)c1ccccc1NC(=O)c1cc2ccccc2oc1=O; -7.9
O=S1(=O)NNC(=NCc2ccc(Cl)c(Cl)c2)c2ccccc21; 11.2
OCCCCCCCCCCCO; 16.9
O=c1nnc(O)c2ccn(O)cc1-2; -34.6
c1ccc(B2OB(c3ccccc3CN3CCCC3)OB(c3ccccc3CN3CCCC3)O2)c(CN2CCCC2)c1; 21
CC(=O)O[C@]12CCCCCC1C1(O)C(O)CCC[C@H]12 (stereo partly specified); -29.4
CC(C)/C=N/N(CCOC(=O)Nc1cccc2ccccc12)C(=O)Nc1cccc2ccccc12; -4.95

Q: Which growth inhibition reading was recorded for the compound `C=CCOC(=O)Nc1cccc(O)c1` ?
Result: 16.9

Q: Record: `C=CN1C(=O)NC2(CCCCC2)C1=O`
Result: -33.8

Q: Same question, COc1cc(C2SC(N)=Nc3c2c(C)nn3C(=O)c2ccc(Cl)cc2)ccc1O (stereo unspecified) this time
Result: -36.7

Q: Now give it for COc1ccc(OC)c(/C=C/C(=O)NC(CO)CSCSC)c1 (stereo unspecified) too.
Result: -0.35

Q: Likewise for `O=C1CS(=O)(=O)CN1c1ccc(Cl)c(Cl)c1` ?
Result: -17.4

Q: // query: Cc1ccc(S(=O)(=O)N/N=C2/CC3CCC4CC2CC34)cc1 (stereo unspecified)
Result: -51

Q: Another compound to look at: `Cc1ccc(C(=O)Cc2nc3c([nH]c2=O)c(C)nn3-c2ccccc2)c(C)c1`
Result: 2.6

Q: Another: `CN(C)C(=O)c1ccc[n+](CC(=O)Nc2ccccc2)c1`
Result: 0.7

Q: Would you kindly repeat that for `CC(=O)OCc1ccc(Cl)cc1Cl` ?
Result: 3.65

Q: Same question, `C(=N\c1nc2ccccc2s1)/c1cccs1` this time
Result: -15.7

Q: // query: `c1ccc(Nc2nnc(-c3nsc4ccccc34)o2)cc1`
Result: -34.5

Q: Similarly, `CCC(CC)=C(c1ccc(C)cc1)c1ccc(C)cc1` ?
Result: -25.2

Q: Follow-up entry: `O=CN(C1CCCCC1)C1CCCCC1`
Result: 14.6

Q: Input `COc1cc(CCCO)ccc1O`
Result: 0.85

Q: Input `O=[N+]([O-])c1ccc(OS(=O)(=O)O)cc1`
Result: 17.8

Q: And `COC(=O)CCC(=O)Nc1cc(Cl)ccc1Cl` ?
Result: -2.35
